# TARGET: Gamma-secretase
# PROTOCOL NOTES: Inhibition of gamma-secretase in HEK293 cell membranes using SPC99-Lon as substrate assessed as formation of amyloid beta 40 after 1 hr by electrochemiluminescence-based immunoassay
# Parameters: species or system Homo sapiens
Labelling: IC50 reported below 70 nM becomes Satisfied; at or above becomes Not satisfied.

MOLECULE	ANSWER LABEL
O=S(=O)(c1ccc(Cl)cc1)[C@@]12CCC[C@]3(CCOC3)[C@@H]1COc1c(F)ccc(F)c12 (stereo in doubt; (+)-14b)	Not satisfied
O=S(=O)(c1ccc(Cl)cc1)[C@@]12CCCC3(CCSCC3)[C@@H]1COc1c(F)ccc(F)c12	Satisfied
O=S(=O)(c1ccc(Cl)cc1)C1(c2cc(F)ccc2F)CCCCC1	Satisfied
O=S(=O)(N1CC[C@]2(CCC[C@@]3(S(=O)(=O)c4ccc(Cl)cc4)c4c(F)ccc(F)c4OC[C@@H]23)C1)C(F)(F)F	Satisfied
O=S(=O)(c1ccc(Cl)cc1)[C@@]12CCCC3(COC3)[C@@H]1COc1c(F)ccc(F)c12	Satisfied
CC1(C)OCC2(CCC[C@@]3(S(=O)(=O)c4ccc(Cl)cc4)c4c(F)ccc(F)c4OC[C@@H]23)CO1	Satisfied
O=S(=O)(c1ccc(Cl)cc1)[C@@]12CCCC(CO)(CO)[C@@H]1COc1c(F)ccc(F)c12	Not satisfied
O=C1OCC[C@]12CCC[C@@]1(S(=O)(=O)c3ccc(Cl)cc3)c3c(F)ccc(F)c3OC[C@@H]21	Not satisfied
O=S(=O)(c1ccc(Cl)cc1)[C@@]12CCC[C@]3(CCOC3)[C@@H]1COc1c(F)ccc(F)c12 (stereo in doubt; (-)-14b)	Satisfied

----------
# TARGET: Gamma-secretase
# PROTOCOL NOTES: Inhibition of gamma-secretase in HEK293 cells using human APP Swedish/London double mutant as substrate assessed as formation of amyloid beta 40 after 5 to 6 hrs by sandwich immunoassay
# Format: cell-based

STRUCTURE SMILES STRING	IC50 (nM)
O=S(=O)(c1ccc(Cl)cc1)[C@@]12CCCC3(COC3)[C@@H]1COc1c(F)ccc(F)c12	13
O=S(=O)(c1ccc(Cl)cc1)C1(c2cc(F)ccc2F)CCCCC1	41
CC1(C)OCC2(CCC[C@@]3(S(=O)(=O)c4ccc(Cl)cc4)c4c(F)ccc(F)c4OC[C@@H]23)CO1	33

----------
# TARGET: Gamma-secretase
# PROTOCOL NOTES: Inhibition of gamma-secretase in HEK293 cells using human APP Swedish/London double mutant as substrate assessed as formation of amyloid beta 42 after 5 to 6 hrs by sandwich immunoassay
# Assay type: cell-based
pIC50: −log10 of the molar value.
Think of 8 as a floor: if pIC50 stands on it or above, it is rule met; beneath it, rule not met.

COMPOUND	ANSWER LABEL
O=S(=O)(c1ccc(Cl)cc1)[C@@]12CCC[C@]3(CCOC3)[C@@H]1COc1c(F)ccc(F)c12 (stereo in doubt; (-)-14b)	rule met
O=S(=O)(c1ccc(Cl)cc1)[C@@]12CCC[C@]3(CCOC3)[C@@H]1COc1c(F)ccc(F)c12 (stereo in doubt; (+)-14b)	rule not met
O=S(=O)(c1ccc(Cl)cc1)C1(c2cc(F)ccc2F)CCCCC1	rule not met
O=S(=O)(c1ccc(Cl)cc1)[C@@]12CCCC3(CCSCC3)[C@@H]1COc1c(F)ccc(F)c12	rule met

----------
# TARGET: UniProtKB P08684
# Sequence (P08684 whole entry): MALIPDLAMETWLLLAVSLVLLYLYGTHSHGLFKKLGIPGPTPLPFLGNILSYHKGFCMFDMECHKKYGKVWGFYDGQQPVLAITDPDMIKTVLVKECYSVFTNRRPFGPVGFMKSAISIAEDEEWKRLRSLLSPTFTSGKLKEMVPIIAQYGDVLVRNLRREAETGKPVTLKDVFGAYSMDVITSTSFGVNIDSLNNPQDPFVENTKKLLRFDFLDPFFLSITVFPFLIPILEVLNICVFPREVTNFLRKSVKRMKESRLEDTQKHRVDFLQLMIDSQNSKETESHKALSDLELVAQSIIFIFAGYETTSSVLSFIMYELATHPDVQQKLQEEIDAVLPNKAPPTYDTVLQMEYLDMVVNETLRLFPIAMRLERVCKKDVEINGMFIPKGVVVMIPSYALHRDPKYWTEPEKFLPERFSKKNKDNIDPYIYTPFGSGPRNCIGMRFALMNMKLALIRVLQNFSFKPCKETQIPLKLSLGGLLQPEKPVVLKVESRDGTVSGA
# PROTOCOL NOTES: Inhibition of CYP3A4 (unknown origin) preincubated with protein for 30 mins followed by substrate addition
# Type: ADME
Recorded IC50 by entry
MEASURED ENDPOINT: IC50

COMPOUND	MEASURED ENDPOINT	TEST RESULT
O=S(=O)(NC[C@@H]1OCC[C@@]2(S(=O)(=O)c3ccc(Cl)cc3)c3c(F)ccc(F)c3OC[C@@H]12)C(F)(F)F	IC50	21.4 µM
O=S(=O)(c1ccc(Cl)cc1)[C@@]12CCC[C@]3(CCOC3)[C@@H]1COc1c(F)ccc(F)c12 (stereo in doubt; (-)-14b)	IC50	> 20 µM
O=S(=O)(N1CC[C@]2(CCC[C@@]3(S(=O)(=O)c4ccc(Cl)cc4)c4c(F)ccc(F)c4OC[C@@H]23)C1)C(F)(F)F	IC50	> 20 µM

----------
Recorded IC50 by entry
# TARGET: Cytochrome P450 2D6 (Homo sapiens)
# PROTOCOL NOTES: Inhibition of CYP2D6 (unknown origin) preincubated with protein for 30 mins followed by substrate addition
# Type: ADME

COMPOUND	TARGET	IC50
O=S(=O)(N[C@@H]1CC[C@@]2(S(=O)(=O)c3ccc(Cl)cc3)c3c(F)ccc(F)c3OC[C@H]2C1)C(F)(F)F	Cytochrome P450 2D6 (Homo sapiens)	> 30 µM
O=S1(=O)CCC2(CCC[C@@]3(S(=O)(=O)c4ccc(Cl)cc4)c4c(F)ccc(F)c4OC[C@@H]23)CC1	Cytochrome P450 2D6 (Homo sapiens)	> 20 µM
O=S(=O)(c1ccc(Cl)cc1)[C@@]12CCC[C@]3(CCOC3)[C@@H]1COc1c(F)ccc(F)c12 (stereo in doubt; (-)-14b)	Cytochrome P450 2D6 (Homo sapiens)	> 20 µM
O=S(=O)(c1ccc(Cl)cc1)[C@@]12CCCC(CO)(CO)[C@@H]1COc1c(F)ccc(F)c12	Cytochrome P450 2D6 (Homo sapiens)	> 30 µM
O=S(=O)(NC[C@@H]1OCC[C@@]2(S(=O)(=O)c3ccc(Cl)cc3)c3c(F)ccc(F)c3OC[C@@H]12)C(F)(F)F	Cytochrome P450 2D6 (Homo sapiens)	30 µM
O=S(=O)(N1CC[C@]2(CCC[C@@]3(S(=O)(=O)c4ccc(Cl)cc4)c4c(F)ccc(F)c4OC[C@@H]23)C1)C(F)(F)F	Cytochrome P450 2D6 (Homo sapiens)	> 30 µM
O=S(=O)(N[C@H]1CC[C@@](c2cc(F)ccc2F)(S(=O)(=O)c2ccc(Cl)cc2)CC1)C(F)(F)F	Cytochrome P450 2D6 (Homo sapiens)	> 30 µM
O=C1OCC[C@]12CCC[C@@]1(S(=O)(=O)c3ccc(Cl)cc3)c3c(F)ccc(F)c3OC[C@@H]21	Cytochrome P450 2D6 (Homo sapiens)	> 30 µM

----------
# TARGET: Cytochrome P450 2D6 (Homo sapiens, UniProt P10635)
# Sequence (P10635 whole entry): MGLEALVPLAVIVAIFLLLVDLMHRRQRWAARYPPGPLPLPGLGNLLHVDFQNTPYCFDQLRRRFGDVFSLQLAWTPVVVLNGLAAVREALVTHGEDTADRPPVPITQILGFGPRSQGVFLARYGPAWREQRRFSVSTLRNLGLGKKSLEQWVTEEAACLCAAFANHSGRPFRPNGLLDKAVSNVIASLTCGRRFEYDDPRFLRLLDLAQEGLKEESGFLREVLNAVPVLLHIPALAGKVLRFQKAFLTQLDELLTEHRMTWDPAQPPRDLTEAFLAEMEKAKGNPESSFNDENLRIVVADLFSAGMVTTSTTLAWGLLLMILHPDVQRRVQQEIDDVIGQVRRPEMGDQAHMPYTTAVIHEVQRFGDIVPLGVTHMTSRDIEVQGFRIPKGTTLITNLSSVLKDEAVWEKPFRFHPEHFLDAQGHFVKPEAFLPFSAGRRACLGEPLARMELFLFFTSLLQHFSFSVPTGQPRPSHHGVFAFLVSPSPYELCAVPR
# PROTOCOL NOTES: Inhibition of CYP2D6 (unknown origin) co-incubated with substrate and protein
# Type: ADME
pIC50: −log10 of the molar value.
Recorded pIC50 by entry

COMPOUND	pIC50
O=C1OCC[C@]12CCC[C@@]1(S(=O)(=O)c3ccc(Cl)cc3)c3c(F)ccc(F)c3OC[C@@H]21	< 4.52
O=S(=O)(c1ccc(Cl)cc1)[C@@]12CCC[C@]3(CCOC3)[C@@H]1COc1c(F)ccc(F)c12 (stereo in doubt; (-)-14b)	< 4.70
O=S(=O)(c1ccc(Cl)cc1)[C@@]12CCCC(CO)(CO)[C@@H]1COc1c(F)ccc(F)c12	< 4.52
O=S1(=O)CCC2(CCC[C@@]3(S(=O)(=O)c4ccc(Cl)cc4)c4c(F)ccc(F)c4OC[C@@H]23)CC1	< 4.70
O=S(=O)(N1CC[C@]2(CCC[C@@]3(S(=O)(=O)c4ccc(Cl)cc4)c4c(F)ccc(F)c4OC[C@@H]23)C1)C(F)(F)F	< 4.52
O=S(=O)(N[C@H]1CC[C@@](c2cc(F)ccc2F)(S(=O)(=O)c2ccc(Cl)cc2)CC1)C(F)(F)F	< 4.52
O=S(=O)(NC[C@@H]1OCC[C@@]2(S(=O)(=O)c3ccc(Cl)cc3)c3c(F)ccc(F)c3OC[C@@H]12)C(F)(F)F	4.75
O=S(=O)(N[C@@H]1CC[C@@]2(S(=O)(=O)c3ccc(Cl)cc3)c3c(F)ccc(F)c3OC[C@H]2C1)C(F)(F)F	< 4.52

----------
Recorded IC50 by entry
# TARGET: Gamma-secretase
# PROTOCOL NOTES: Inhibition of gamma-secretase in HEK293 cells using human APP Swedish/London double mutant as substrate assessed as formation of amyloid beta 40 after 5 to 6 hrs by sandwich immunoassay
# Format: cell-based
MEASURED ENDPOINT: IC50 (nM)

COMPOUND	TARGET	TEST RESULT
O=S(=O)(c1ccc(Cl)cc1)[C@@]12CCC[C@]3(CCOC3)[C@@H]1COc1c(F)ccc(F)c12 (stereo in doubt; (-)-14b)	Gamma-secretase	6
O=S(=O)(N1CC[C@]2(CCC[C@@]3(S(=O)(=O)c4ccc(Cl)cc4)c4c(F)ccc(F)c4OC[C@@H]23)C1)C(F)(F)F	Gamma-secretase	13
O=S(=O)(c1ccc(Cl)cc1)[C@@]12CCC[C@]3(CCOC3)[C@@H]1COc1c(F)ccc(F)c12 (stereo in doubt; (+)-14b)	Gamma-secretase	104
O=S(=O)(c1ccc(Cl)cc1)[C@@]12CCCC3(CCSCC3)[C@@H]1COc1c(F)ccc(F)c12	Gamma-secretase	17
